- System: blood platelet aggregation
- Method: Blood platelet aggregation inhibition in vitro in rabbit PRP, collagen induced
- Format: cell-based, male, New Zealand strain house rabbit
- Test Context: Oryctolagus cuniculus, collagen final concentration 5 μg/ml, 37° C., 3 minutes preincubation, 50% inhibition of maximum aggregation rate
# reported IC50; entries follow
Outcome Measure: IC50 (µM)

>>> print(df.to_string())
                                    molecule               tested_target  outcome_measure  observed_measurement
 0  O=C(/C=C1/C(=O)N(Cc2ccccc2F)C1c1ccccc1)c1ccc([N+](=O)[O-])cc1 (stereo not shown) [Compound 96]  blood platelet aggregation             IC50                   3.7
 1  O=C(/C=C1/C(=O)N(c2ccccc2)C1c1ccc(O)cc1)c1ccc([N+](=O)[O-])cc1 (stereo not shown) [Compound 75]  blood platelet aggregation             IC50                   5.4
 2  O=C(/C=C1/C(=O)N(c2ccccc2)C1c1ccccc1)c1ccccc1 (stereo not shown) [Compound 4]  blood platelet aggregation             IC50                    16
 3  O=C(/C=C1/C(=O)N(Cc2ccc(Cl)cc2Cl)C1c1ccccc1)c1ccc([N+](=O)[O-])cc1 (stereo not shown) [Compound 103]  blood platelet aggregation             IC50                   6.7
 4  O=C(/C=C1/C(=O)N(c2cc(Cl)cc(Cl)c2)C1c1ccccc1)c1ccc(F)cc1 (stereo not shown) [Compound 37]  blood platelet aggregation             IC50                  17.8
 5  Cc1ccc(CN2C(=O)/C(=C/C(=O)c3ccc([N+](=O)[O-])cc3)C2c2ccccc2)cc1 (stereo not shown) [Compound 91]  blood platelet aggregation             IC50                   6.7
 6  O=C(/C=C1/C(=O)N(Cc2ccccc2Cl)C1c1ccccc1)c1ccc(F)cc1 (stereo not shown) [Compound 55]  blood platelet aggregation             IC50                   8.3
 7  CC(=O)/C=C1/C(=O)N(c2ccccc2)C1c1ccccc1 (stereo not shown) [Compound 1]  blood platelet aggregation             IC50                    14
 8  Cc1ccccc1N1C(=O)/C(=C/C(=O)c2ccc(F)cc2)C1c1ccc(Br)cc1 (stereo not shown) [Compound 85]  blood platelet aggregation             IC50                  14.4
 9  O=C(/C=C1/C(=O)N(c2ccc(F)cc2)C1c1ccccc1)c1ccccc1 (stereo not shown) [Compound 29]  blood platelet aggregation             IC50                   8.1
10  O=C(/C=C1/C(=O)N(c2ccc(Br)cc2)C1c1ccccc1)c1ccc(F)cc1 (stereo not shown) [Compound 40]  blood platelet aggregation             IC50                  13.2
11  COc1ccccc1CN1C(=O)/C(=C/C(=O)c2ccc([N+](=O)[O-])cc2)C1c1ccccc1 (stereo not shown) [Compound 94]  blood platelet aggregation             IC50                   6.9
12  O=C(/C=C1/C(=O)N(c2ccccc2)C1c1ccccc1F)c1ccc(F)cc1 (stereo not shown) [Compound 80]  blood platelet aggregation             IC50                  10.9
